Listed here are variants together with their documented self-cleavage kobs at 2500 uM GlcN6P.
B1: glmS ribozyme (parent)
chain: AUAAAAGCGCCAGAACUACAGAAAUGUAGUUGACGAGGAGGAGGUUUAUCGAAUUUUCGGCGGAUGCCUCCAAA

variants of: B1; experiment: self-cleavage kobs at 2500 uM GlcN6P; higher = faster cleavage; RNA array; settings: with glucosamine-6-phosphate
Variants at the floor of the assay were thinned out.
Just the number please, in s⁻¹, no unit attached.

{"columns": ["VARIANT NOTATION", "MEASURE UNIT", "RECORDED RESULT"],
 "data": [
  ["A6C G41U C68U C70A", "s⁻¹", "3.76e-05"],
  ["U30A U45A", "s⁻¹", 0.00515],
  ["U30A C70G C71U", "s⁻¹", "8.51e-05"],
  ["A48G A53G C67G", "s⁻¹", "6.1e-05"],
  ["A15C U65G", "s⁻¹", 0.000818]
]}

Name the reported self-cleavage kobs at 2500 uM GlcN6P value associated with the variant G29A C50G C71A
0.000111

Name the reported self-cleavage kobs at 2500 uM GlcN6P value associated with the variant C16U A64G U65A C70U
0.000964

Name the reported self-cleavage kobs at 2500 uM GlcN6P value associated with the variant C11A U54A U55G
0.000135

Name the reported self-cleavage kobs at 2500 uM GlcN6P value associated with the variant C8U C11U C58A C67G
0.000112

Name the reported self-cleavage kobs at 2500 uM GlcN6P value associated with the variant A15G U56G C58U
3.75e-05

Name the reported self-cleavage kobs at 2500 uM GlcN6P value associated with the variant A15U A39C U45A
0.000454
